Quick list: normalized growth per entry.
# test description: chemical genetic growth profiling, strain panel (AID 1159580);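 also: tested at 20 µM; growth read once vehicle control cultures reached saturation at 30 °C; 1 = growth at the plate median or of vehicle wells; lower values mean less growth of the strain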
# test context: S. cerevisiae deletion strains, growth OD, locus YHR027C, strain rpn1, stronger effect = lower value
Among all 5,500 compounds or so, about 2,000 (36%) were called active. Inconclusive results (about 18%) are left out. This is one part of the list.

>  <compound>
CC(CCC(=O)O)[C@H]1CCC2C3CC[C@@H]4CCCC[C@]4(C)C3CC[C@@]21C (some centres undefined)

>  <normalized growth>
0.995

$$$$
>  <compound>
O=[N+]([O-])c1cccc2c(Br)[nH]nc12

>  <normalized growth>
0.974

$$$$
>  <compound>
Cc1cc(C)cc(OCC2CNC(=O)O2)c1 (centres undefined)

>  <normalized growth>
0.964

$$$$
>  <compound>
C[C@@H](N)[C@@H](O)c1ccccc1

>  <normalized growth>
1

$$$$

---

Quick list: normalized growth per entry.
# test description: chemical genetic growth profiling, strain panel (AID 1159580);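 also: tested at 20 µM; growth read once vehicle control cultures reached saturation at 30 °C; 1 = growth at the plate median or of vehicle wells; lower values mean less growth of the strain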
# test context: S. cerevisiae deletion strains, growth OD, locus YHR079C, strain IRE1, stronger effect = lower value
Out of some 5,500 compounds screened, about 2,000 (36%) were called active. About 18% were inconclusive and are not listed. This is one part of the list.
measurement kind: normalized growth

>  <compound>
S=C(Nc1cc(Cl)c(Cl)cc1Cl)Nc1ccccc1Br

>  <measurement kind>
normalized growth

>  <measured>
0.82

$$$$
>  <compound>
NNCCc1ccccc1

>  <measurement kind>
normalized growth

>  <measured>
0.965

$$$$
>  <compound>
CN1CC(CNC(=O)OCc2ccccc2)CC2c3cccc4c3c(cn4C)CC21 (centres undefined)

>  <measurement kind>
normalized growth

>  <measured>
0.972

$$$$
>  <compound>
O=c1cc(-c2ccc(O)cc2)oc2cc(O)cc(O)c12

>  <measurement kind>
normalized growth

>  <measured>
0.996

$$$$

---

# test description: chemical genetic growth profiling, strain panel (AID 1159580);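 also: tested at 20 µM; growth read once vehicle control cultures reached saturation at 30 °C; 1 = growth at the plate median or of vehicle wells; lower values mean less growth of the strain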
# test context: S. cerevisiae deletion strains, growth OD, locus YOR184W, strain ser1, stronger effect = lower value
The whole screen tested about 5,500 compounds, of which about 2,000 (36%) were called active. About 18% were inconclusive and are not listed. This is one part of the list.
Quick list: normalized growth per entry.
measurement kind: normalized growth

>  <compound>
CC1(C)C(O)CC(O)C2(C)C1CC(O)C1(C)C2CCC2(C)C(c3ccoc3)OC(=O)C3OC321 (centres undefined)

>  <measured>
1.03

$$$$
>  <compound>
C=C1[C@H]2CC[C@@]3(C)[C@H](c4ccoc4)OC(=O)C[C@]13O[C@H]1C[C@H](O)C(C)(C)[C@H](CC(=O)OC)[C@]12C

>  <measured>
1.02

$$$$
>  <compound>
CC(CN1c2ccccc2Sc2cccnc21)N(C)C (centres undefined)

>  <measured>
0.985

$$$$
>  <compound>
CCCCSP(=O)(SCCCC)SCCCC

>  <measured>
0.987

$$$$

---

# test description: chemical genetic growth profiling, strain panel (AID 1159580);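 also: tested at 20 µM; growth read once vehicle control cultures reached saturation at 30 °C; 1 = growth at the plate median or of vehicle wells; lower values mean less growth of the strain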
# test context: S. cerevisiae deletion strains, growth OD, locus YJL134W, strain LCB3, stronger effect = lower value
About 2,000 (36%) of roughly 5,500 compounds were called active. Roughly 18% stayed inconclusive and do not appear here. Some of the results follow.
Quick list: normalized growth per entry.

>  <compound>
O=c1cc(-c2ccccc2)oc2cc(O)cc(O)c12

>  <normalized growth>
0.991 (inactive)

$$$$
>  <compound>
COc1cc(C(=O)O)c2c(c1C)OC(=O)c1c(C)cc(O)c(C=O)c1O2

>  <normalized growth>
0.996 (inactive)

$$$$
>  <compound>
c1ccc2c(c1)CN1CCCC1=N2

>  <normalized growth>
1.01 (inactive)

$$$$
>  <compound>
Cc1cccc(Nc2ccncc2S(=O)(=O)NC(=O)NC(C)C)c1

>  <normalized growth>
1.01 (inactive)

$$$$
>  <compound>
COc1cc(C)c(C(=O)Oc2cc(C)c(C(=O)O)c(O)c2C)c(OC)c1C

>  <normalized growth>
1.01 (inactive)

$$$$
>  <compound>
CC1(C)C(=O)C=C[C@@]2(C)C1CC(=O)[C@@]1(C)C3=CC(=O)O[C@@H](c4ccoc4)[C@]3(C)CCC12 (stereo not given in full)

>  <normalized growth>
1.01 (inactive)

$$$$
>  <compound>
O=c1cc(-c2ccccc2)oc2c(O)c(O)ccc12

>  <normalized growth>
0.986 (inactive)

$$$$
>  <compound>
C[C@@H]1O[C@@H](O[C@H]2C[C@@H](O)[C@]3(CO)C4C(CC[C@]3(O)C2)[C@@]2(O)CC[C@H](C3=CC(=O)OC3)[C@@]2(C)C[C@H]4O)[C@H](O)[C@H](O)[C@H]1O (stereo not given in full)

>  <normalized growth>
1.01 (inactive)

$$$$
>  <compound>
COC(=O)c1c(C)cc(OC(=O)c2c(C)cc(O)c(C=O)c2O)c(C)c1O

>  <normalized growth>
1.01 (inactive)

$$$$
>  <compound>
COc1cc2c(cc1O)C(Cc1ccc(O)cc1)N(C)CC2 (stereo not given)

>  <normalized growth>
1.02 (inactive)

$$$$
>  <compound>
NC(N)=O

>  <normalized growth>
0.99 (inactive)

$$$$
>  <compound>
O=C(Nc1ccccc1)Nc1ccccc1

>  <normalized growth>
1 (inactive)

$$$$
>  <compound>
CC1CC2C3CC(F)C4=CC(=O)C=CC4(C)C3(F)C(O)CC2(C)C1C(=O)COC(=O)C(C)(C)C (stereo not given)

>  <normalized growth>
1.01 (inactive)

$$$$
>  <compound>
O=C(O)CCCOc1ccc(Cl)cc1Cl

>  <normalized growth>
0.998 (inactive)

$$$$
>  <compound>
COc1cc(OC)c(OC)cc1C=O

>  <normalized growth>
0.987 (inactive)

$$$$
>  <compound>
CCCCC[C@H](CC(=O)NO)C(=O)N[C@H](C(=O)N1CCC[C@H]1CO)C(C)C

>  <normalized growth>
1.01 (inactive)

$$$$
>  <compound>
CCCCSP(=O)(SCCCC)SCCCC

>  <normalized growth>
1.02 (inactive)

$$$$
>  <compound>
Cc1cc(O)c(C=O)c2c1C(=O)Oc1c(C)c(O)c3c(c1O2)C(O)OC3=O (stereo not given)

>  <normalized growth>
0.986 (inactive)

$$$$
>  <compound>
NCC(CC(=O)O)c1ccc(Cl)cc1 (stereo not given)

>  <normalized growth>
1.01 (inactive)

$$$$
>  <compound>
Nc1cc(-c2ccncc2)c[nH]c1=O

>  <normalized growth>
0.994 (inactive)

$$$$

Source: PubChem BioAssay AID1159580
